Overview of reported % UTC 148 nM across a group of substances:
Tested on: Yap1 mRNA
Experiment: Dose-dependent inhibition of human Yap1 in A-431 cells (Example 6, 5,000 cells per well, RTS4814)
Type: cell-based
Conditions: Table 53; A-431 cells, free uptake, 148 nM, approximately 48 hours, RTS4814
Strand notation (5' to 3'): a small letter for the sugar, then the base; units joined by * are phosphorothioate-linked, units joined directly phosphodiester-linked; [ ] holds rarer units or linkages, { } end groups; capitals alone tell only the bases. k = constrained ethyl (cEt); [5mC] = 5-methylcytosine; d = 2'-deoxy (DNA)
Just the number in % UTC, nothing appended.

substance: 715510 (kA*kT*kT*dT*dG*d[5mC]*dT*dG*dT*dG*d[5mC]*dT*dG*kG*kG*kA; antisense) [compound 715510]
tested_on: Yap1 mRNA
% UTC 148 nM, % UTC: 88

substance: 715500 (kA*kA*kG*d[5mC]*d[5mC]*dT*dT*dA*dG*dA*dG*dT*d[5mC]*kA*kA*kT; antisense) [compound 715500]
tested_on: Yap1 mRNA
% UTC 148 nM, % UTC: 97

substance: 715555 (kG*kT*kT*dA*dT*dT*d[5mC]*dA*dG*d[5mC]*dA*dG*d[5mC]*kT*kT*kA; antisense) [compound 715555]
tested_on: Yap1 mRNA
% UTC 148 nM, % UTC: 93

substance: 715434 (kT*k[5mC]*kT*dT*dG*dT*dT*d[5mC]*dT*dT*dA*dT*dG*kG*kT*kT; antisense) [compound 715434]
tested_on: Yap1 mRNA
% UTC 148 nM, % UTC: 84

substance: 715473 (kT*k[5mC]*kT*dT*dT*dA*dT*d[5mC]*dT*dA*dG*d[5mC]*dT*kT*kG*kG; antisense) [compound 715473]
tested_on: Yap1 mRNA
% UTC 148 nM, % UTC: 89

Shifting focus to the substance that follows.
Given 715523 (kA*kT*k[5mC]*dA*dG*dT*dA*d[5mC]*dT*dG*dG*d[5mC]*d[5mC]*kT*kA*kT; antisense) [compound 715523] , respond with its % UTC 148 nM.
100

Source: patent US11214803B2
